Target: Amine oxidase [flavin-containing] A (Homo sapiens, UniProt P21397)
Sequence (P21397 whole entry): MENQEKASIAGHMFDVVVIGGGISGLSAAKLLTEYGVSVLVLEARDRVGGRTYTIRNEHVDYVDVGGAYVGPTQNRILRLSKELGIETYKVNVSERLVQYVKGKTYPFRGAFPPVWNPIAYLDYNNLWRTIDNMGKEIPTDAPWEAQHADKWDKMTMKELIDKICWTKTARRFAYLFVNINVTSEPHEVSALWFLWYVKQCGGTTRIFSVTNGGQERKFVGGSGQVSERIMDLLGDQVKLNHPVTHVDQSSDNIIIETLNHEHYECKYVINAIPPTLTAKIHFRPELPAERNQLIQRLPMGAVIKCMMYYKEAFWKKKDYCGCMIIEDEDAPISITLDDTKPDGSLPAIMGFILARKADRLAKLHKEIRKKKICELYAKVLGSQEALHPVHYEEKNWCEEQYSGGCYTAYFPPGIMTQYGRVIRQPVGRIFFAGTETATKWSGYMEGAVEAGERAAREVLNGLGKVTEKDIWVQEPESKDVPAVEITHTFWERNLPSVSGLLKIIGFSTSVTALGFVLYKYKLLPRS
Dear all, I have gathered published log10 IC50 values for Amine oxidase [flavin-containing] A (Homo sapiens, UniProt P21397); the list follows.
Endpoint name: log10 IC50 (log10 of the value in µM)

Record smiles: O=C1CCCc2ccc(OCc3ccc(Br)cc3)cc21
Test target: Amine oxidase [flavin-containing] A (Homo sapiens, UniProt P21397)
log10 IC50: -1.47
--
Record smiles: O=C1C(Cl)=C(OCCCCO)C(=O)c2ccccc21
Test target: Amine oxidase [flavin-containing] A (Homo sapiens, UniProt P21397)
log10 IC50: 0.70
--
Record smiles: N#Cc1ccc(OCCc2ccccc2)cc1C#N
Test target: Amine oxidase [flavin-containing] A (Homo sapiens, UniProt P21397)
log10 IC50: 0.12
--
Record smiles: O=C1CCCc2ccc(OCc3cccc(Cl)c3)cc21
Test target: Amine oxidase [flavin-containing] A (Homo sapiens, UniProt P21397)
log10 IC50: -0.79
--
Record smiles: O=C(CCc1cn(Cc2ccc3oc(-c4ccc(Cl)cc4)cc(=O)c3c2)nn1)Nc1ccc(F)cc1
Test target: Amine oxidase [flavin-containing] A (Homo sapiens, UniProt P21397)
log10 IC50: 2.83
--
Record smiles: O=c1ccoc2cc(OCc3ccc(C(F)(F)F)cc3)ccc12
Test target: Amine oxidase [flavin-containing] A (Homo sapiens, UniProt P21397)
log10 IC50: 0.29

====

Dear all, I have gathered published log10 of IC50 values for Amine oxidase [flavin-containing] A (Homo sapiens); the list follows.
Endpoint name: log10 of IC50 (log10 of the value in nM)

Record smiles: O=c1ccoc2cc(OCc3ccc(Cl)cc3)ccc12
Measurement: 2.69
--
Record smiles: O=C1/C(=C/c2ccsc2)Cc2ccccc21
Measurement: 3.18
--
Record smiles: N#Cc1cccc(OC/C=C/c2ccccc2)c1
Measurement: 3.56
--
Record smiles: O=C1CCCc2ccc(OCc3cccc(Br)c3)cc21
Measurement: 2.52
--
Record smiles: O=C1CCCc2ccc(OCCCc3ccccc3)cc21
Measurement: 3.07
--
Record smiles: O=C1/C(=C/c2cccs2)Cc2ccccc21
Measurement: 3.12
--
Record smiles: N#Cc1ccc(OCCCc2ccccc2)cc1C#N
Measurement: 2.81
--
Record smiles: O=C(NCc1cn(Cc2ccc3oc(-c4ccccc4)cc(=O)c3c2)nn1)c1ccccc1
Measurement: 5.26
--
Record smiles: Cc1cccc(COc2ccc3c(=O)ccoc3c2)c1
Measurement: 3.90
--
Record smiles: Cc1ccc(C2=NN(c3ccccc3)CC2)cc1
Measurement: 3.84
--
Record smiles: O=C1CCCc2ccc(OCc3cccc(F)c3)cc21
Measurement: 2.11

====

Dear all, I have gathered published IC50 values for the protein given by its sequence; the list follows.
Target sequence: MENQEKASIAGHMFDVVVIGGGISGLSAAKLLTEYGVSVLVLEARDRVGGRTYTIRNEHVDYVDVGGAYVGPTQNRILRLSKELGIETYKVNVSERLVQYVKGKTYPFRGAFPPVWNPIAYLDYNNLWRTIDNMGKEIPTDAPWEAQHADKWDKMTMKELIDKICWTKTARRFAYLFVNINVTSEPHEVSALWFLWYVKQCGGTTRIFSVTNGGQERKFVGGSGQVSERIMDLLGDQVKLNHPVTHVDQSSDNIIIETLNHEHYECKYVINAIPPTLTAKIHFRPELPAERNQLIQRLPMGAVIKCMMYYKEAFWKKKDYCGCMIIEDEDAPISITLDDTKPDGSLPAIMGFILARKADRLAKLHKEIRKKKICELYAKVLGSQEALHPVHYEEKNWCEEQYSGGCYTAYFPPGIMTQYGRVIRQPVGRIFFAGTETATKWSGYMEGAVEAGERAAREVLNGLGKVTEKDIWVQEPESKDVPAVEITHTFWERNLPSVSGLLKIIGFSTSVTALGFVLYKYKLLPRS
Threshold-based label: IC50 under 2000 nM gives Satisfied, IC50 not under 2000 nM gives Not satisfied.

Record smiles: COc1ccc2c(c1)C/C(=C\c1ccc(Br)o1)C2=O
Group label: Satisfied
--
Record smiles: N#Cc1cccc(OCc2ccccc2)c1
Group label: Not satisfied
--
Record smiles: Cc1ccc(COc2ccc3c(=O)ccoc3c2)cc1
Group label: Not satisfied
--
Record smiles: O=C(NCc1cn(Cc2ccc3oc(-c4ccccc4)cc(=O)c3c2)nn1)c1ccc(Cl)cc1
Group label: Not satisfied
--
Record smiles: N#Cc1ccc(Oc2ccccc2)cc1C#N
Group label: Not satisfied
--
Record smiles: COc1ccc2c(c1)C/C(=C\c1ccco1)C2=O
Group label: Not satisfied
--
Record smiles: O=c1cc(-c2ccc(Cl)cc2)oc2ccc(Cn3cc(CNc4ccc(Cl)cc4)nn3)cc12
Group label: Not satisfied
--
Record smiles: C(=C\c1ccccc1)/COc1ccccc1
Group label: Not satisfied
--
Record smiles: O=C1/C(=C/c2cccnc2)Cc2ccccc21
Group label: Satisfied
--
Record smiles: N#Cc1cccc(OCc2ccc(Br)cc2)c1
Group label: Not satisfied
--
Record smiles: O=c1ccoc2cc(OCCc3ccc(Br)cc3)ccc12
Group label: Satisfied
--
Record smiles: O=c1ccoc2cc(OCCc3ccccc3)ccc12
Group label: Not satisfied
--
Record smiles: Brc1ccc(CCOc2ccccc2)cc1
Group label: Not satisfied
--
Record smiles: O=C1CCCc2ccc(OCc3ccc(C(F)(F)F)cc3)cc21
Group label: Satisfied
--
Record smiles: CN(CC(=O)Nc1cccc(S(=O)(=O)N2CCOCC2)c1)c1cc(Cl)ccc1O
Group label: Not satisfied
--
Record smiles: N#Cc1ccc(OC/C=C/c2ccccc2)cc1C#N
Group label: Satisfied
--
Record smiles: O=c1ccoc2cc(OCc3cccc(Br)c3)ccc12
Group label: Satisfied

====

Dear all, I have gathered published pIC50 values for Amine oxidase [flavin-containing] A (Homo sapiens); the list follows.
pIC50: −log10 of the molar value.
Endpoint name: pIC50

Record smiles: Cc1ccc(NC(=O)CCc2cn(Cc3ccc4oc(-c5ccccc5)cc(=O)c4c3)nn2)cc1
Measurement: 4.60
--
Record smiles: O=C1/C(=C/C2CCCCC2)Cc2ccccc21
Measurement: 5.28
--
Record smiles: Cc1ccc(OCc2cn(Cc3ccc4oc(-c5ccc(Cl)cc5)cc(=O)c4c3)nn2)cc1
Measurement: 3.82
--
Record smiles: O=c1cc(-c2ccc(Cl)cc2)oc2ccc(Cn3cc(COc4ccccc4)nn3)cc12
Measurement: 3.46
--
Record smiles: O=C(CCc1cn(Cc2ccc3oc(-c4ccccc4)cc(=O)c3c2)nn1)Nc1ccc(F)cc1
Measurement: 3.13
--
Record smiles: COc1ccc2c(c1)C/C(=C\c1cccs1)C2=O
Measurement: 5.29
--
Record smiles: O=C1CCCc2ccc(OCc3ccc(Cl)cc3)cc21
Measurement: 7.48
--
Record smiles: COc1ccc2c(c1)C/C(=C\c1ccc(C)o1)C2=O
Measurement: 5.33
--
Record smiles: O=c1ccoc2cc(OCc3cccc(F)c3)ccc12
Measurement: 5.68
--
Record smiles: N#Cc1ccc(COc2ccc3c(=O)ccoc3c2)cc1
Measurement: 5.80
